- Format: in vivo, human
- condition-summary: male, human, plasma, oral, 600 mg, t1/2, Cohort 1, Day 3, Fed; mean, n = 2
measure-name: half-life (h)
Entry rule: numbers only, all in h.

Quick one: half-life of N=C(N)Nc1ccc(C(=O)Oc2ccc(CC(=O)O)cc2)cc1 ?
1.33

====

- Type: in vivo, human
- condition-summary: male, human, plasma, oral, 600 mg, Tmax, Cohort 2, Day 3, 1 h before a meal; median (range)
measure-name: Tmax
Numeric answer plus unit only.

Entry under review: N=C(N)Nc1ccc(C(=O)Oc2ccc(CC(=O)O)cc2)cc1 . Reported Tmax?
1 h

====

- Type: in vivo, human
- condition-summary: male, human, plasma, oral, 600 mg, AUC4h, Cohort 2, Day 3, 1 h before a meal; mean (SD)
measure-name: AUC(0-t)

// AUC(0-t) lookup, key: N=C(N)Nc1ccc(C(=O)Oc2ccc(CC(=O)O)cc2)cc1 [GBPA]
366 ng·h/mL
